measured-attribute: melting point (°C)
I only need the number, in °C, no unit after it.

In [3]: df
Out[3]:
                                   compound  reported_value
0                Oc1c(O)c(Br)c(Br)c(Br)c1Br             191
1                          COc1ccc(CCCO)cc1              26
2  CC1(C)OC2CC3C4CCC5=CC(=O)C=CC5(C)C4(F)C(O)CC3(C)C2(C(=O)CO)O1 (stereo not drawn)             293

Please fill in: melting point reported for Cn1c(=O)c(C2=NNC(=O)C2=NNc2cccnc2)c(O)c2ccccc21 = 230

For Cc1ncccc1O the compound record lists melting point as 168

The recorded melting point for entry Nc1cc(F)c(C(F)(F)F)c(F)c1 equals 66
